subject of test: BACE1 enzyme (soluble, truncated BACE enzyme, BACE1deltaTM96His) (Homo sapiens)
Construct: soluble, truncated BACE enzyme (BACE1deltaTM96His); His; made in house
Sequence (P56817 46-457): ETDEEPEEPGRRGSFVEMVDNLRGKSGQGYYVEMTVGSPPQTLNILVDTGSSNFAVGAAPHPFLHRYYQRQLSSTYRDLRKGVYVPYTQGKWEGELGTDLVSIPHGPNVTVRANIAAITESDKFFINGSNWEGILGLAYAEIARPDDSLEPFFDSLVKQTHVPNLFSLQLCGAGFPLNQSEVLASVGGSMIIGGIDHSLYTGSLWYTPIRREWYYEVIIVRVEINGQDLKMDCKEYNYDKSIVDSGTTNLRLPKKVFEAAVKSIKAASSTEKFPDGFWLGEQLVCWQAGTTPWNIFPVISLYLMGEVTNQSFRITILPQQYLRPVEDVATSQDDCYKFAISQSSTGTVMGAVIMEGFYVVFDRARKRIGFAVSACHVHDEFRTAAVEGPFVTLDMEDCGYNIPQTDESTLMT
test protocol: BACE1 Fluorescent Polarization (FP) Assay
Format: biochemical
reported conditions: 11-point curve; geometric mean of 2-4 IC50 determinations unless footnoted (^2: 5-6 determinations; ^4: single determination); read-out: BACE activity, 11-point curve, IC50
pIC50: −log10 of the molar value. Structures can show the parent of a compound that is named as a salt.
quantity kind: pIC50

[
  {
    "molecule": "C[C@H]1C[C@@]2(C=CS(=O)(=O)N2c2cccc(F)c2)CCN1Cc1scnc1-c1cncnc1 [Example 43]",
    "pIC50": 5.08
  }
]

[1] C[C@H]1C[C@@]2(C=CS(=O)(=O)N2c2cccc(F)c2)CCN1Cc1ccc(O)c(Cl)c1 [Example 15, hydrochloride salt]
[2] C[C@H]1C[C@@]2(C=CS(=O)(=O)N2c2cccc(F)c2)CCN1Cc1ccc(O)c(C2CCC2)c1 [Example 75]
[3] C[C@H]1C[C@]2(CCN1Cc1ccc3[nH]ccc3c1)CCS(=O)(=O)N2c1cccc(F)c1 [Example 51]
Req: Task field, ranking: reported pIC50, descending order. Lab note: record answer as labels in requested order.
Resp: 2, 1, 3
(2: 7.38, 1: 6.32, 3: 5.25)
